# tested-target: Orexin receptor type 2 (Homo sapiens)
# protocol-summary: Agonist activity at human OX2 receptor overexpressed in CHO-RD-HGA16 cells assessed as calcium mobilization at 10 uM after 15 mins by fluorescence assay relative to control
# Format: functional, cell-based
Where a SMILES comes first, the peptide text is derived from it.

| molecule | Percent activation at 10 uM |
| --- | --- |
| CC[C@H](C)[C@H](NC(=O)CNC(=O)[C@@H](C)NC(=O)[C@H](C)NC(=O)[C@H](Cc1cnc[nH]1)NC(=O)[C@H](CC(N)=O)NC(=O)CNC(=O)[C@H](C)NC(=O)CNC(=O)[C@H](Cc1cnc[nH]1)NC(=O)[C@H](CC(C)C)NC(=O)[C@H](CC(C)C)NC(=O)[C@H](CCC(=O)O)NC(=O)[C@@H](N)Cc1ccc(O)cc1)C(=O)N[C@@H](CC(C)C)C(=O)N[C@H](C(=O)N[C@@H](CC(C)C)C(N)=O)[C@@H](C)O | < 50% |
| CC[C@H](C)[C@H](NC(=O)CNC(=O)[C@H](C)NC(=O)[C@H](C)NC(=O)[C@H](Cc1cnc[nH]1)NC(=O)[C@@H](CC(N)=O)NC(=O)CNC(=O)[C@H](C)NC(=O)CNC(=O)[C@H](Cc1cnc[nH]1)NC(=O)[C@H](CC(C)C)NC(=O)[C@H](CC(C)C)NC(=O)[C@H](CCC(=O)O)NC(=O)[C@@H](N)Cc1ccc(O)cc1)C(=O)N[C@@H](CC(C)C)C(=O)N[C@H](C(=O)N[C@@H](CC(C)C)C(N)=O)[C@@H](C)O | < 50% |
| CC[C@H](C)[C@H](NC(=O)[C@H](C)NC(=O)[C@H](C)NC(=O)[C@H](C)NC(=O)[C@H](Cc1cnc[nH]1)NC(=O)[C@H](CC(N)=O)NC(=O)CNC(=O)[C@H](C)NC(=O)CNC(=O)[C@H](Cc1cnc[nH]1)NC(=O)[C@H](CC(C)C)NC(=O)[C@H](CC(C)C)NC(=O)[C@H](CCC(=O)O)NC(=O)[C@@H](N)Cc1ccc(O)cc1)C(=O)N[C@@H](CC(C)C)C(=O)N[C@H](C(=O)N[C@@H](CC(C)C)C(N)=O)[C@@H](C)O (H-YELLHGAGNHAAAILTL-NH2) | < 50% |

----------
# Organism: Homo sapiens
# protocol-summary: Selectivity ratio of EC50 for human OX2 receptor to EC50 for human OX1 receptor
Where a SMILES comes first, the peptide text is derived from it.

| compound | Ratio EC50 |
| --- | --- |
| CC[C@H](C)[C@H](NC(=O)CNC(=O)[C@H](C)NC(=O)[C@H](C)NC(=O)[C@H](Cc1c[nH]cn1)NC(=O)[C@H](CC(N)=O)NC(=O)CNC(=O)[C@H](C)NC(=O)CNC(=O)[C@H](Cc1c[nH]cn1)NC(=O)[C@H](CC(C)C)NC(=O)[C@H](CC(C)C)NC(=O)[C@H](CCC(=O)O)NC(=O)[C@H](Cc1ccc(O)cc1)NC(=O)[C@H](CC(C)C)NC(=O)[C@@H](N)CCCN=C(N)N)C(=O)N[C@@H](CC(C)C)C(=O)N[C@H](C(=O)N[C@@H](CC(C)C)C(N)=O)[C@@H](C)O (H-RLYELLHGAGNHAAGILTL-NH2) | 15 |
| CC[C@H](C)[C@H](NC(=O)CNC(=O)[C@H](C)NC(=O)[C@H](C)NC(=O)[C@H](Cc1cnc[nH]1)NC(=O)[C@H](CC(N)=O)NC(=O)CNC(=O)[C@H](C)NC(=O)CNC(=O)[C@H](C)NC(=O)[C@H](CC(C)C)NC(=O)[C@H](CC(C)C)NC(=O)[C@H](CCC(=O)O)NC(=O)[C@@H](N)Cc1ccc(O)cc1)C(=O)N[C@@H](CC(C)C)C(=O)N[C@H](C(=O)N[C@@H](CC(C)C)C(N)=O)[C@@H](C)O (H-YELLAGAGNHAAGILTL-NH2) | 3.9 |
| CC[C@H](C)[C@H](NC(=O)CNC(=O)[C@H](C)NC(=O)[C@H](C)NC(=O)[C@H](Cc1cnc[nH]1)NC(=O)[C@H](CC(N)=O)NC(=O)CNC(=O)[C@H](C)NC(=O)CNC(=O)[C@H](Cc1cnc[nH]1)NC(=O)[C@@H](CC(C)C)NC(=O)[C@H](CC(C)C)NC(=O)[C@H](CCC(=O)O)NC(=O)[C@@H](N)Cc1ccc(O)cc1)C(=O)N[C@@H](CC(C)C)C(=O)N[C@H](C(=O)N[C@@H](CC(C)C)C(N)=O)[C@@H](C)O | 0.3 |
| CC[C@H](C)[C@H](NC(=O)CNC(=O)[C@H](C)NC(=O)[C@H](C)NC(=O)[C@H](Cc1cnc[nH]1)NC(=O)[C@H](CC(N)=O)NC(=O)CNC(=O)[C@H](C)NC(=O)CNC(=O)[C@H](Cc1cnc[nH]1)NC(=O)[C@H](CC(C)C)NC(=O)[C@H](CC(C)C)NC(=O)[C@H](C)NC(=O)[C@@H](N)Cc1ccc(O)cc1)C(=O)N[C@@H](CC(C)C)C(=O)N[C@H](C(=O)N[C@@H](CC(C)C)C(N)=O)[C@@H](C)O (H-YALLHGAGNHAAGILTL-NH2) | 5.6 |
